Subject of test: recombinant human kinase domain of JAK1 (Homo sapiens (Human))
Assay notes: JAK Caliper enzyme assay at 1 mM ATP (JAK1)
Assay type: biochemical
Measurement setup: 1 mM ATP; read-out: IC50 (nM) JAK1
Measured endpoint: log10 IC50 (log10 of the value in nM)
Units before log transform: nM; reported quantity: IC50; transform: log10.

Would you please look over these solved cases?
• Cn1cc(Nc2nccc(N3C[C@H]4CC[C@@H](C3)N4c3cc(C#N)ccn3)n2)cn1 = 1.72
• O=C([C@@H]1CC1(F)F)N1[C@@H]2CC[C@H]1CN(c1ccnc(Nc3cnc(N4CC(O)C4)c(F)c3)n1)C2 = 2.69
• CCNC(=O)c1ccc(Nc2ncc(F)c(N3C[C@H]4CC[C@@H](C3)N4C(=O)C(F)(F)F)n2)cc1C = 1.91
• CNC(=O)c1ncc(Nc2nccc(N3C[C@H]4CC[C@@H](C3)N4C(=O)C3CC3)n2)cc1Cl = 3.06
• Cn1cc(Nc2ncc(F)c(N3C[C@@]4(CO)C[C@@]4(NC(=O)[C@@H]4C[C@H]4C#N)C3)n2)cn1 = 1.46

Read the next record carefully.
Ask: Query: log10 IC50; subject: Cn1cc(Nc2nccc(N3C[C@H]4CC[C@@H](C3)N4C[C@@H]3CC3(F)F)n2)cn1
Result: 1.98

----------
Subject of test: recombinant human kinase domain of JAK2 (Homo sapiens (Human), UniProt O60674)
Sequence (O60674 849-1124): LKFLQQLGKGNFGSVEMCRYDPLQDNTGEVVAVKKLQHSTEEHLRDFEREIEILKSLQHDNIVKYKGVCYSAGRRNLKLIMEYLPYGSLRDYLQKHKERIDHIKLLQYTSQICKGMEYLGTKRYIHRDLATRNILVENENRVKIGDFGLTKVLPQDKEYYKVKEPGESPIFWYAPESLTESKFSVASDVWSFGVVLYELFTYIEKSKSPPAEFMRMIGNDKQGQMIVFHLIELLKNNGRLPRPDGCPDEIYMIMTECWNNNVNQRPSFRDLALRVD
Assay notes: JAK Caliper enzyme assay at 1 mM ATP (JAK2);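 note: microfluidic mobility-shift read-out of fluorescent synthetic peptide phosphorylation, percent product converted from peak heights, room temperature, DMSO-only wells as uninhibited baseline, inhibition curve fit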
Type: biochemical
Classes are defined on IC50 with ranges lower = under 400 nM, middle = from 400 nM up to 700 nM, upper = 700 nM and over

Previously resolved entries follow.
- CNC(=O)c1ncc(Nc2nccc(N3C[C@H]4CC[C@@H](C3)N4C(=O)[C@@H]3CC3(F)F)n2)cc1F: middle
- C[C@@H]1[C@@H]2CN(c3nc(Nc4cnc(CO)c(Cl)c4)ncc3F)C[C@]12NC(=O)C1CC1: upper
- CC(CC#N)N1[C@@H]2CC[C@H]1CN(c1ccnc(Nc3cn[nH]c3)n1)C2 (stereo partly drawn): middle
- CCNC(=O)N1[C@@H]2CC[C@H]1CN(c1ccnc(Nc3cn[nH]c3)n1)C2: middle
- Cc1cnc(Nc2ccc(OCCO)nc2)nc1N1C[C@H]2[C@@H](C)[C@@]2(NC(=O)[C@H]2C[C@@H]2C#N)C1: lower

Ask: Each compound maps to one class by IC50. Which class for CNC(=O)c1ncc(Nc2nccc(N3C[C@H]4CC[C@@H](C3)N4C(=O)C3CC3)n2)cc1C ?
Result: upper

Ask: Next compound up: CCNC(=O)N1[C@@H]2CC[C@H]1CN(c1ccnc(Nc3cnc(C(=O)NC)c(C)c3)n1)C2
Result: middle

Ask: // query: Cc1cc(Nc2nccc(N3C[C@H]4CC[C@@H](C3)N4C(=O)[C@@H]3CC3(F)F)n2)cnc1C(N)=O
Result: lower

----------
Subject of test: recombinant human kinase domain of JAK1 (Homo sapiens (Human))
Assay notes: JAK Caliper enzyme assay at 1 mM ATP (JAK1)
Type: biochemical
Overview of reported pIC50 across a group of compounds:
In simple prose, pIC50 is minus the logarithm base ten of a concentration in moles per litre.

Illustrative cases are given below, each with its answer.
• CNC(=O)c1ncc(Nc2nccc(N3C[C@H]4CC[C@@H](C3)N4C(=O)[C@H]3CC3(F)F)n2)cc1F = 5.86
• CNC(=O)c1ncc(Nc2nccc(N3C[C@H]4CC[C@@H](C3)N4[C@H]3C[C@H](C#N)C3)n2)cc1C (single isomer, unassigned) = 5.99
• CNC(=O)c1ncc(Nc2nccc(N3C[C@H]4CC[C@@H](C3)N4[C@H]3C[C@@H](C#N)C3)n2)cc1C (single isomer, unassigned) = 7.51

Shifting focus to the compound that follows.
Ask: Record request: pIC50 value, item CNC(=O)c1ncc(Nc2nccc(N3C[C@H]4CC[C@@H](C3)N4C(=O)[C@@H]3CC3(F)F)n2)cc1F
Result: 6.88

----------
Subject of test: recombinant human kinase domain of JAK1 (Homo sapiens (Human), UniProt P23458)
Sequence (P23458 875-1153): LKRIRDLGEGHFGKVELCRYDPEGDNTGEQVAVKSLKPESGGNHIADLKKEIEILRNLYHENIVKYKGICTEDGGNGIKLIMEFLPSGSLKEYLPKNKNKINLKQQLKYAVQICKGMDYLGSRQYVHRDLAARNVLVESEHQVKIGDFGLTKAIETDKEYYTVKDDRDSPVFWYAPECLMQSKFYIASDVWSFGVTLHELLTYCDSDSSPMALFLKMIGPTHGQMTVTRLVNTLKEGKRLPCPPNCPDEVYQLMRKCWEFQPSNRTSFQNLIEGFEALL
Assay notes: JAK Caliper enzyme assay at 1 mM ATP (JAK1);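 note: microfluidic mobility-shift readout of synthetic fluorescent peptide phosphorylation, percent product converted from peak height, inhibition relative to DMSO-only wells as uninhibited baseline, room temperature incubation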
Format: biochemical
Measurement setup: 1 mM ATP; read-out: IC50 (nM) JAK1
Measured endpoint: IC50 (nM)
Field format: number, assumed nM, no unit text.

Use these answered entries as a reference point.
- C[C@H](CO)c1ccc(Nc2nccc(N3C[C@H]4CC[C@@H](C3)N4C(=O)[C@@H]3CC3(F)F)n2)cn1 (single isomer, unassigned) [Example 12]: 79
- Cn1cc(Nc2nccc(N3C[C@H]4CC[C@@H](C3)N4C(=O)C3CC(F)(F)C3)n2)cn1 [Example 39]: 305
- CNC(=O)c1ncc(Nc2nccc(N3C[C@H]4CC[C@@H](C3)N4C(=O)NCC(F)(F)F)n2)cc1C [Example 89]: 10

Next compound, please.
Ask: Data request, read-out IC50, for Cn1cc(Nc2nccc(N3C[C@H]4CC[C@@H](C3)N4S(C)(=O)=O)n2)cn1 [Example 77]
Result: 380

----------
Test system: interferon alpha signalling (TYK2 and JAK1), STAT3 phosphorylation
Assay notes: Human whole blood INFα induced STAT3 phosphorylation assay;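 note: flow cytometry with anti-pSTAT3 staining, signal as percent-positive × mean fluorescence, baseline from unstimulated wells, 11-point dilution series, IC50 as inhibition of pSTAT3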
Assay type: cell-based
Measurement setup: compound 60 minutes at 37° C., IFNα 5000 U/ml for 15 minutes, pSTAT3 in lymphocyte population by flow cytometry, read-out: HWB IFN alpha IC50
Response field label takes Criterion met when IC50 is strictly below 200 nM and Criterion not met in all other cases.

Take a look at these entries with their results.
* O=C([C@@H]1CC1(F)F)N1[C@@H]2CC[C@H]1CN(c1ccnc(Nc3cnc(CO)c(F)c3)n1)C2 | Criterion not met
* CNC(=O)c1ncc(Nc2nccc(N3C[C@H]4CC[C@@H](C3)N4C(=O)C3CC3)n2)cc1C | Criterion not met
* CNC(=O)c1ncc(Nc2nccc(N3C[C@H]4CC[C@@H](C3)N4C(=O)[C@H]3C[C@@H]3F)n2)cc1C | Criterion not met
* CCNC(=O)c1ccc(Nc2nccc(N3CC4CC(C3)N4C(=O)C(C)(F)F)n2)cc1 | Criterion met
* Cn1cc(Nc2nccc(N3C[C@H]4CC[C@@H](C3)N4C3(CC#N)COC3)n2)cn1 | Criterion met

Ask: Determine whether this compound shows IC50 lower than 200 nM (ties excluded): CNC(=O)c1ncc(Nc2nccc(N3C[C@H]4CC[C@@H](C3)N4C(=O)NCC#N)n2)cc1C
Result: Criterion not met

Ask: Continue with O=C([C@@H]1CC1(F)F)N1[C@@H]2CC[C@H]1CN(c1ccnc(Nc3cnc(N4CC(O)C4)c(F)c3)n1)C2
Result: Criterion not met

----------
Subject of test: recombinant human kinase domain of JAK3 (Homo sapiens (Human))
Assay notes: JAK Caliper enzyme assay at 1 mM ATP (JAK3)
Format: biochemical
Measurement setup: 1 mM ATP; read-out: IC50 (nM) JAK3
Measured endpoint: IC50

• Cn1cc(Nc2nccc(N3C[C@H]4CC[C@@H](C3)N4C(=O)[C@@H]3C[C@@H]3C#N)n2)cn1 = 8310 nM
• CCNC(=O)N1[C@@H]2CC[C@H]1CN(c1ccnc(Nc3cnc(C(=O)NC)c(C)c3)n1)C2 = > 10000 nM
• Cn1cc(Nc2nccc(N3C[C@H]4CC[C@@H](C3)N4C3CN(S(C)(=O)=O)C3)n2)cn1 = > 10000 nM
• NC(=O)c1ncc(Nc2nccc(N3C[C@H]4CC[C@@H](C3)N4C(=O)[C@@H]3CC3(F)F)n2)cc1F = > 10000 nM

Ask: Can you share its IC50? I mean this compound: Cn1cc(Nc2nccc(N3C[C@H]4CC[C@@H](C3)N4C3(CC#N)CN(S(C)(=O)=O)C3)n2)cn1
Result: 1240 nM

Ask: Can you handle C[C@@H]1[C@@H]2CN(c3nc(Nc4cnc(CO)c(Cl)c4)ncc3F)C[C@]12NC(=O)C1CC1 next?
Result: > 10000 nM

Ask: Next record, please: CNC(=O)c1ncc(Nc2nccc(N3C[C@H]4CC[C@@H](C3)N4C(=O)[C@@H]3CC3(F)F)n2)cc1Cl
Result: > 10000 nM

----------
Subject of test: recombinant human kinase domain of JAK3 (Homo sapiens (Human), UniProt P52333)
Sequence (P52333 822-1111): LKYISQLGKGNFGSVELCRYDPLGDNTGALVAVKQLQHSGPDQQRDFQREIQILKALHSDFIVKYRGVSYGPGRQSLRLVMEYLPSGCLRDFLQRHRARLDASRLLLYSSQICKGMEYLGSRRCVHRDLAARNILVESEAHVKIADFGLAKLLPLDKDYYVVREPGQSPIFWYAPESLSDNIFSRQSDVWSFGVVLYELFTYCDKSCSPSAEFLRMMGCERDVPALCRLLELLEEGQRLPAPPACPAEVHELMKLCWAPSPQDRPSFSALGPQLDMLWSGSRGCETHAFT
Assay notes: JAK Caliper enzyme assay at 1 mM ATP (JAK3)
Assay type: biochemical
Measurement setup: 1 mM ATP; read-out: IC50 (nM) JAK3
Measured endpoint: IC50

Ask: State its IC50 on recombinant human kinase domain of JAK3 (Homo sapiens (Human), UniProt P52333): Cn1cc(Nc2nccc(N3C[C@H]4CC[C@@H](C3)N4Cc3cnoc3)n2)cn1
Result: > 10000 nM

Ask: And what about the compound CCNC(=O)c1ccc(Nc2ncc(F)c(N3C[C@H]4CC[C@@H](C3)N4C(=O)OC(C)(C)C)n2)cc1C ?
Result: 1770 nM

----------
We begin with a simple list: items and their reported IC50.
Subject of test: recombinant human kinase domain of TYK2 (Homo sapiens (Human))
Sequence (P29597 897-1176): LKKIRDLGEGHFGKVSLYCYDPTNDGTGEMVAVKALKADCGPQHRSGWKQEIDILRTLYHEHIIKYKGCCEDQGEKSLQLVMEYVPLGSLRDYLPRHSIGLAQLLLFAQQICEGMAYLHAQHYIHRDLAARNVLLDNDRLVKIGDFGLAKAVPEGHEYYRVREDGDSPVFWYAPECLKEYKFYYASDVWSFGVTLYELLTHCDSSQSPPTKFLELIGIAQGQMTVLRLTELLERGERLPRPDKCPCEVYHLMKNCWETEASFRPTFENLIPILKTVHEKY
Assay notes: JAK Caliper enzyme assay at 1 mM ATP (TYK2);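 note: microfluidic mobility-shift readout of synthetic peptide phosphorylation by TYK2, tuned to 20–30% conversion at room temperature, reaction stopped with EDTA, DMSO-only wells as uninhibited baseline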
Assay type: biochemical
Measurement setup: 1 mM ATP; read-out: IC50 (nM) TYK2
Express your answer in nM, writing the number without its unit.

Some solved entries appear below for comparison.
• CNC(=O)c1cc(Nc2nccc(N3C[C@H]4CC[C@@H](C3)N4C(=O)[C@@H]3CC3(F)F)n2)cc(CO)n1 = 84
• CCNC(=O)N1[C@@H]2CC[C@H]1CN(c1ccnc(Nc3cnsc3)n1)C2 = 65
• Cn1cc(Nc2nccc(N3C[C@H]4CC[C@@H](C3)N4Cc3cnoc3)n2)cn1 = 73
• CNC(=O)c1ncc(Nc2nccc(N3C[C@H]4CC[C@@H](C3)N4Cc3ccno3)n2)cc1C = 24
• Cn1cc(Nc2nccc(N3C[C@H]4CC[C@@H](C3)N4C[C@H]3C[C@@H]3C#N)n2)cn1 [Example 69] = 811
• Cn1cc(Nc2ncc(F)c(N3C[C@@]4(CO)C[C@@]4(NC(=O)[C@@H]4C[C@H]4C#N)C3)n2)cn1 = 58

From here, focus on the item given below.
Ask: Give the reported IC50 for CNC(=O)c1ncc(Nc2nccc(N3C[C@H]4CC[C@@H](C3)N4[C@H]3C[C@H](C#N)C3)n2)cc1C (single isomer, unassigned) (system: recombinant human kinase domain of TYK2 (Homo sapiens (Human))).
Result: 224
